Test: chemical genetic growth profiling, strain panel (AID 1159580);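 note: tested at 20 µM; growth read once vehicle control cultures reached saturation at 30 °C; 1 = growth at the plate median or of vehicle wells; lower values mean less growth of the strain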
Details: S. cerevisiae deletion strains, growth OD, locus YPL241C, strain CIN2, hits give low values
Among all 5,500 compounds or so, about 2,000 (36%) were called active. Roughly 18% stayed inconclusive and do not appear here. Some of the results follow.
measurementName: normalized growth
Keep the answer to the number alone.

Task: Quick one: normalized growth of "Cc1ccc(OCc2nnc(SCC(=O)Nc3cccc4c3OCO4)n2-c2ccccc2)c2c1CCC2" ?
Output: 0.999

Task: How about this compound: "NC(N)=O"
Output: 1.07

Task: Try "O=C(Nc1nncs1)c1ccncc1" next.
Output: 1.03

Task: Param item: "COc1c(Cl)ccc(Cl)c1C(=O)O"
Output: 1.01

Task: Also, "CSC(=NC(=O)c1c(Cl)cccc1Cl)SC" please.
Output: 0.663

Task: Then this compound: "COC(=O)CCCOc1ccc(Cl)cc1Cl"
Output: 0.993

Task: Would you kindly repeat that for "CC(N)=O" ?
Output: 0.975

Task: Then CN(C)CCOC(=O)C(c1ccccc1)C1(O)CCCC1 (stereo not drawn) ?
Output: 0.988

Task: Next compound up: "Clc1ccc(OCCOc2ccc(Cl)cc2)cc1"
Output: 0.986

Task: Field entry: "CCC(=O)c1c(C)c(C)c(C)c(C)c1C"
Output: 0.986

Task: Also, "O=C(O)CCOc1ccc(Cl)cc1" please.
Output: 0.954

Task: Moving on to "COC(=O)COc1ccc(C(C)=O)cc1"
Output: 1.07

Task: Another: O=C1CSC(c2ccc(Cl)c(Cl)c2)N1c1ccc(F)cc1 (stereo not drawn)
Output: 0.977

====

Exercise: for every item that follows, state its recorded normalized growth.
Experiment: chemical genetic growth profiling, strain panel (AID 1159580)
Conditions: S. cerevisiae deletion strains, growth OD, locus YJR043C, strain POL32, hits give low values
The whole screen tested about 5,500 compounds, of which about 2,000 (36%) were called active. About 18% were inconclusive and are not listed. The list shows a part of the results.
# print the numeric value only

Task: Which normalized growth is listed for "CNCCCN1c2ccccc2CCc2ccccc21" ?
Output: 1.01

Task: Next up: CC(CN1c2ccccc2Sc2ccccc21)N(C)C (stereo not given)
Output: 0.968

Task: Next up: CCC(=O)c1ccc2c(c1)N(CC(C)N(C)C)c1ccccc1S2 (stereo not given)
Output: 0.96

Task: What about CC1(C)C(=O)C=C[C@@]2(C)C1CC(=O)[C@@]1(C)C3=CC(=O)O[C@@H](c4ccoc4)[C@]3(C)CCC12 (stereo not given in full) ?
Output: 1.01

Task: What about "COC(=O)COc1ccc(C(C)=O)cc1" ?
Output: 1.01

Task: Another compound: "O=C(Nc1ccccc1)Nc1ccc(C(F)(F)F)cc1Br"
Output: 0.926

Task: Continue with "O=C(O)CCOc1ccc(Cl)cc1"
Output: 0.913

Task: Also need CC(CN(C)C)CN1c2ccccc2CCc2ccccc21 (stereo not given) , thanks.
Output: 1

Task: Consider next the compound CSc1ccc2c(c1)N(CCC1CCCCN1C)c1ccccc1S2 (stereo not given) in the same way.
Output: 0.0862

Task: Entry to check: O=C(O)CC(CC(=O)Nc1ccc(I)cc1F)c1ccc(C(F)(F)F)cc1 (stereo not given)
Output: 1

Task: Repeat with "COc1cc([C@@H]2c3cc4c(cc3[C@H](OC(C)=O)[C@H]3COC(=O)[C@@H]23)OCO4)cc(OC)c1OC"
Output: 1.01

Task: Also "FC(F)(F)c1cc(-n2c(CCc3nc(-c4ccc(Cl)cc4)no3)n[nH]c2=S)cc(C(F)(F)F)c1" , if possible.
Output: 0.978

Task: "O=c1[nH]cnc2[nH]ncc12" ?
Output: 0.988

Task: Repeat for the following compound: "Cc1ccc(OCc2nnc(SCC(=O)Nc3cccc4c3OCO4)n2-c2ccccc2)c2c1CCC2"
Output: 1

Task: What about "O=C(Nc1ccccc1)NC1CCCC1" ?
Output: 1.04

Task: # iterate: "CC(=O)Nc1ccccc1"
Output: 0.968

Task: How about this compound: NCC(CC(=O)O)c1ccc(Cl)cc1 (stereo not given)
Output: 1.03

Task: How about CN(C)CCOC(=O)C(c1ccccc1)C1(O)CCCC1 (stereo not given) ?
Output: 1.01

Task: Same again, this time with "N#Cc1cccc(Cn2c(=O)oc3ccccc32)c1"
Output: 1

Task: Same question for "CCc1ccccc1NC(C)=O" please.
Output: 0.995

Task: Then what about the compound "N#Cc1csc([N+](=O)[O-])c1" ?
Output: 0.929

Task: Repeat with "c1ccc2c(c1)CN1CCCC1=N2"
Output: 1.06

Task: Proceed to "Clc1ccc(OCCOc2ccc(Cl)cc2)cc1"
Output: 1.04

Task: For "CN(C)CCOC(=O)COc1ccc(Cl)cc1" then?
Output: 1.09

Task: Would you mind doing CC1CC2C3CC(F)C4=CC(=O)C=CC4(C)C3(F)C(O)CC2(C)C1C(=O)COC(=O)C(C)(C)C (stereo not given) as well?
Output: 0.892

====

Assay: chemical genetic growth profiling, strain panel (AID 1159580);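 note: tested at 20 µM; growth read once vehicle control cultures reached saturation at 30 °C; 1 = growth at the plate median or of vehicle wells; lower values mean less growth of the strain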
Conditions: S. cerevisiae deletion strains, growth OD, locus YDL192W, strain arf1, hits give low values
Out of some 5,500 compounds screened, about 2,000 (36%) were called active. Inconclusive results (about 18%) are left out. The list shows a part of the results.
Provide the recorded normalized growth for the entries that follow.
Reply with the value as a number alone.

Task: Need normalized growth, item "COc1cc(C(=O)O)c2c(c1C)OC(=O)c1c(C)cc(O)c(C=O)c1O2"
Output: 0.991

Task: Here is the next compound: "Cc1cccc(Nc2ccncc2S(=O)(=O)NC(=O)NC(C)C)c1"
Output: 1.03

Task: Another compound to check: "Cc1cc(O)c(C)c2c1C(=O)Oc1c(C)c(O)c(C(=O)O)c(C)c1O2"
Output: 0.983

Task: Next compound up: C=C1C2CC[C@@]3(C)[C@H](c4ccoc4)OC(=O)C[C@]13O[C@H]1CC(O)C(C)(C)C(CC(=O)OC)[C@@]21C (stereo partly specified)
Output: 1.01

Task: Can you handle "CCCCSP(=O)(SCCCC)SCCCC" next?
Output: 1.01

Task: One more compound: "CCC(=O)Nc1ccc(Cl)c(Cl)c1"
Output: 0.994

====

Assay: chemical genetic growth profiling, strain panel (AID 1159580);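 note: tested at 20 µM; growth read once vehicle control cultures reached saturation at 30 °C; 1 = growth at the plate median or of vehicle wells; lower values mean less growth of the strain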
Settings: S. cerevisiae deletion strains, growth OD, locus YLR027C, strain aat2, hits give low values
Out of some 5,500 compounds screened, about 2,000 (36%) were called active. Roughly 18% stayed inconclusive and do not appear here. This is one part of the list.
measurementName: normalized growth
In your answer, state the number alone without any accompanying words.

Task: I am curious: what normalized growth value has been reported for "O=c1cc(-c2cc(O)c(O)c(O)c2)oc2cc(O)cc(O)c12" ?
Output: 0.974

Task: Cool, now "COc1cc(C)c(C(=O)Oc2cc(C)c(C(=O)O)c(O)c2C)c(OC)c1C"
Output: 0.991

Task: Consider next the compound "Cc1cc(O)c(C=O)c2c1C(=O)Oc1c(COC(=O)/C=C/C(=O)O)c(O)c(C(=O)O)c(C)c1O2" in the same way.
Output: 0.982

Task: Another compound: "O=c1cc(-c2ccccc2)oc2c(O)c(O)ccc12"
Output: 0.999

Task: Now the compound "O=c1cc(-c2ccc(O)cc2)oc2cc(O)ccc12"
Output: 0.953

====

Experiment: chemical genetic growth profiling, strain panel (AID 1159580);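 note: tested at 20 µM; growth read once vehicle control cultures reached saturation at 30 °C; 1 = growth at the plate median or of vehicle wells; lower values mean less growth of the strain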
Details: S. cerevisiae deletion strains, growth OD, locus YKL009W, strain mrt4, hits give low values
Screen size: about 5,500 compounds; about 2,000 (36%) were called active. Not shown: some 18% with an inconclusive outcome. Some of the results follow.
measurementName: normalized growth
// print number alone

Task: Report normalized growth for CC(CCC(=O)O)[C@H]1CCC2C3CC[C@@H]4C[C@H](O)CC[C@]4(C)C3CC[C@@]21C (stereo partly drawn) please.
Output: 0.935

Task: Next record, please: CC(CCC(=O)O)[C@H]1CCC2C3CC[C@@H]4CCCC[C@]4(C)C3CC[C@@]21C (stereo partly drawn)
Output: 0.95

Task: Same again, this time with C[C@H](CCC(=O)O)[C@H]1CCC2C3C(CC[C@@]21C)[C@@]1(C)CC[C@@H](O)C[C@H]1C[C@@H]3O (stereo partly drawn)
Output: 0.807

Task: For COC(=O)CCC(=O)O[C@H]1CCC2(C)C(CCC3C2C(=O)[C@@H](O)C2(C)C3CC3OC4(CCC(C)CO4)[C@@H](C)C32)C1 (stereo partly drawn) then?
Output: 0.998

Task: Entry to check: COC(=O)CCC(C)[C@H]1CCC2C3C(C[C@H](O)[C@@]21C)[C@@]1(C)CC[C@@H](O)C[C@H]1C[C@H]3O (stereo partly drawn)
Output: 1.02

Task: Note, next up: CC[C@H](CCC(C)[C@H]1CCC2C3CCC4C[C@@H](O)CC[C@]4(C)C3CC[C@@]21C)C(C)C (stereo partly drawn)
Output: 1.02

Task: Now consider CC(CCC(=O)O)[C@H]1CCC2C3C(C[C@H](O)[C@@]21C)[C@@]1(C)CC[C@@H](O)C[C@H]1C[C@H]3O (stereo partly drawn) and answer again.
Output: 0.959

Task: Here is the next molecule: CC(CCC(=O)O)[C@H]1CCC2C3CC[C@@H]4C[C@H](O)CC[C@]4(C)C3C[C@H](O)[C@@]21C (stereo partly drawn)
Output: 0.942
